Let's go through some recorded pKi values for Histamine H3 receptor (Homo sapiens, UniProt Q9Y5N1) together.
The value called pKi is obtained by taking minus log10 of the concentration in mol/L.

>  <compound>
CC(O)COc1ccc2c(c1)CCC1(CCN(C3CCC3)CC1)O2 (configuration not stated)

>  <pKi>
7.60

$$$$
>  <compound>
CSCCOc1ccc2c(c1)CCC1(CCN(C3CCC3)CC1)O2

>  <pKi>
7.42

$$$$

Exam item: What pKi value was documented for this compound, c1cc2c(cc1OCC1CCCO1)CCC1(CCN(C3CCC3)CC1)O2 (configuration not stated) ?
Marked response: 7.80

Exam item: Consider next the compound `c1cc2c(cc1OCC1CCSCC1)CCC1(CCN(C3CCC3)CC1)O2` in the same way.
Marked response: 7.92

* * *

# assay: Cmax in rat at 5 mg/kg, po
# Type: ADME, organism-based
# Parameters: dose 5 mg/kg, route oral
# recorded conditions: in vivo
Each item that follows carries a reported Cmax.
The reply should be a number in ng/mL, with the unit left off.

Exam item: Name the reported Cmax value associated with the compound `O=S1(=O)CCC(Oc2ccc3c(c2)CCC2(CCN(C4CCC4)CC2)O3)CC1`
Marked response: 460

Exam item: Proceed to `CS(=O)(=O)CCCOc1ccc2c(c1)CCC1(CCN(C3CCC3)CC1)O2`
Marked response: 142

Exam item: What do you have for `O=S1(=O)CCC(COc2ccc3c(c2)CCC2(CCN(C4CCC4)CC2)O3)CC1` ?
Marked response: 157

* * *

# measurement target: Histamine H1 receptor (Homo sapiens, UniProt P35367)
# Sequence (P35367 whole entry): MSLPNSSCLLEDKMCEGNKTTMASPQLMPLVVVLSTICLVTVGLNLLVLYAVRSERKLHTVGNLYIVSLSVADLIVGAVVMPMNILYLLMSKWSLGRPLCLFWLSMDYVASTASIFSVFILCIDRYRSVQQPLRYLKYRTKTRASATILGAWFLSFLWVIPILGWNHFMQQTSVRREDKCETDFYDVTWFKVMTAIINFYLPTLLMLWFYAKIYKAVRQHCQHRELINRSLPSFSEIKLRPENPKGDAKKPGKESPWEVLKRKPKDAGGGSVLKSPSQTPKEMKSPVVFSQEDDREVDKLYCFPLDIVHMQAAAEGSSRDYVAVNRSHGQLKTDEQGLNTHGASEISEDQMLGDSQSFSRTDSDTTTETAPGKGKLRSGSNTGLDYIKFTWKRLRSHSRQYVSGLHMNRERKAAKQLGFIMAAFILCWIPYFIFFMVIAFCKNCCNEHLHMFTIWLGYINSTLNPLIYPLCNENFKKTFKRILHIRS
pKi: −log10 of the molar value.
measure name: pKi

Exam item: GET /values?readout=pKi&item= `CS(=O)(=O)CCCOc1ccc2c(c1)CCC1(CCN(C3CCC3)CC1)O2`
Marked response: < 5.00

* * *

# assay: Half life in rat liver microsomes
# Type: ADME, Microsome
half-life values, listed per item

Example entries and their recorded answers appear below.
>  <chemical string>
O=S1(=O)CCC(COc2ccc3c(c2)CCC2(CCN(C4CCC4)CC2)O3)CC1

>  <result>
> 40 min

$$$$
>  <chemical string>
O=S1(=O)CCC(Oc2ccc3c(c2)CCC2(CCN(C4CCC4)CC2)O3)CC1

>  <result>
> 40 min

$$$$

Exam item: Consider the compound `CS(=O)(=O)CCCOc1ccc2c(c1)CCC1(CCN(C3CCC3)CC1)O2` and give its measured half-life.
Marked response: > 40 min

* * *

# assay: Oral bioavailability in rat at 5 mg/kg
# Assay type: ADME, organism-based
# recorded conditions: in vivo
measure name: bioavailability
Phrase the answer as number then unit, nothing more needed.

Worked cases, bioavailability given:
>  <chemical string>
O=S1(=O)CCC(Oc2ccc3c(c2)CCC2(CCN(C4CCC4)CC2)O3)CC1

>  <bioavailability>
48%

$$$$
>  <chemical string>
CS(=O)(=O)CCCOc1ccc2c(c1)CCC1(CCN(C3CCC3)CC1)O2

>  <bioavailability>
13%

$$$$

# ---- query molecule ----
Exam item: Returns the measured bioavailability for the input molecule. Input: `O=S1(=O)CCC(COc2ccc3c(c2)CCC2(CCN(C4CCC4)CC2)O3)CC1`
Marked response: 22%

* * *

Reported clearance values for a set of compounds
# assay: Clearance in rat at 1 mg/kg, iv
# Assay type: ADME, organism-based
# Design: dose 1 mg/kg, route intravenous
# recorded conditions: in vivo
Give the value in mL/min/kg but do not write mL/min/kg after it.

Solved cases (2 shown):
>  <chemical string>
CS(=O)(=O)CCCOc1ccc2c(c1)CCC1(CCN(C3CCC3)CC1)O2

>  <measure unit>
mL/min/kg

>  <numeric result>
16

$$$$
>  <chemical string>
O=S1(=O)CCC(COc2ccc3c(c2)CCC2(CCN(C4CCC4)CC2)O3)CC1

>  <measure unit>
mL/min/kg

>  <numeric result>
23

$$$$

Continue with the compound presented below.
Exam item: Reported clearance, compound `O=S1(=O)CCC(Oc2ccc3c(c2)CCC2(CCN(C4CCC4)CC2)O3)CC1` : ____
Marked response: 19
